- System Name: ΔTRα2 (T4 Inactivating Protein; TIP) (Rattus norvegicus, UniProt P63059)
- Construct: ΔTRα2 is encoded by exons 8-10 resulting in an approximately 25 kd protein
- Sequence (P63059 whole entry, stated change not applied): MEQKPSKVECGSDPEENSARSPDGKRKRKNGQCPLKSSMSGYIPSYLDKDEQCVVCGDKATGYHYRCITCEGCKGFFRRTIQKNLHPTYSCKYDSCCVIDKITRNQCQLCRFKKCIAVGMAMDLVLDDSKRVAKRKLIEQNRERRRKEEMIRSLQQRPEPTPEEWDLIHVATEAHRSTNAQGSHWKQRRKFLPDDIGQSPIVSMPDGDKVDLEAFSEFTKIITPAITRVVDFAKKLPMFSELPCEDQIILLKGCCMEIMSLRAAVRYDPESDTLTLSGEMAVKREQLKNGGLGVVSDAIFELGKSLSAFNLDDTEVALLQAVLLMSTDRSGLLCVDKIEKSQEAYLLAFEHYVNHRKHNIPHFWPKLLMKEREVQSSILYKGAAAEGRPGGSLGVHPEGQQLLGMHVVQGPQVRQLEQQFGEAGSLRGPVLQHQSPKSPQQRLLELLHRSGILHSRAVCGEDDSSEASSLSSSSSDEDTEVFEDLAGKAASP
- Assay Method Text: rT3 binding displacement in nuclei-free extracts of cultured rat astrocytes
- Experimental Context: ΔTRα2-containing nuclei-free astrocyte extracts; rT3 as ligand; read-out: Kd, displacement of rT3
pKd: −log10 of the molar value.
Observable: pKd

**Query** Name the reported pKd value associated with the compound N[C@@H](Cc1cc(I)c(Oc2cc(I)c(O)c(I)c2)c(I)c1)C(=O)O
**Result** 9.30 to 9.52
